- Method Summary: Half life in rhesus monkey at 3 mg/kg, po and 1 mg/kg, iv
- Assay type: ADME, organism-based, Macaca mulatta
- Measurement Setup: in vivo
This section presents molecules with their documented half-life values.
Measure Name: half-life (h)

> print(dat)
                                   molecule  unit.string  quantitative.readout
1  Cc1noc(-c2c(F)cccc2-c2ccc([C@@H](C)NC(=O)C3(NC(=O)C(F)(F)F)CC3)c(F)c2)n1            h                   2.9
2  COC(=O)c1c(F)cccc1-c1ccc([C@@H](C)NC(=O)C2(NC(=O)C(F)(F)F)CC2)c(F)c1            h                   2.2
3  COC(=O)c1c(Cl)cccc1-c1ccc([C@@H](C)NC(=O)C2(NC(=O)C(F)(F)F)CC2)c(F)c1            h                   1.7

---

- Method Summary: Half life in Sprague-Dawley rat at 10 mg/kg, po and 2 mg/kg, iv
- Format: ADME, organism-based
- Measurement Setup: in vivo
Measure Name: half-life (min)

> print(dat)
                                   molecule  measure.name  unit.string  quantitative.readout
1  COC(=O)c1c(F)cccc1-c1ccc([C@@H](C)NC(=O)C2(NC(=O)C(F)(F)C(F)(F)F)CC2)c(F)c1     half-life          min                  20.4
2  C[C@@H](NC(=O)C1(NC(=O)C(F)(F)F)CC1)c1ccc(-c2cccc(Cl)c2-c2nnn(C)n2)cc1F     half-life          min                    42
3  C[C@@H](NC(=O)C1(NC(=O)C(F)(F)F)CC1)c1ccc(-c2cccc(F)c2C(F)(F)F)cc1F     half-life          min                   156
4  Cc1noc(-c2c(F)cccc2-c2ccc([C@@H](C)NC(=O)C3(NC(=O)C(F)(F)F)CC3)c(F)c2)n1     half-life          min                    21
5  CCOC(=O)c1c(Cl)cccc1-c1ccc([C@@H](C)NC(=O)C2(NC(=O)C(F)(F)F)CC2)c(F)c1     half-life          min                    66
6  COC(=O)c1c(F)cccc1-c1ccc([C@@H](C)NC(=O)C2(NC(=O)C(F)(F)F)CC2)c(F)c1     half-life          min                    30
7  COC(=O)c1c(Cl)cccc1-c1ccc([C@@H](C)NC(=O)C2(NC(=O)C(F)(F)F)CC2)c(F)c1     half-life          min                    24

---

- System: LLC-PK1
- Method Summary: Ratio of transport from basolateral to apical over apical to basolateral in LLC-PK1 cells expressing human MDR1
- Type: ADME, cell-based, Sus scrofa
- Measurement Setup: pig
Quick list: Ratio per entry.
Measure Name: Ratio

> print(dat)
                                   molecule  quantitative.readout
1  COC(=O)c1c(F)cccc1-c1ccc([C@@H](C)NC(=O)C2(NC(=O)C(F)(F)F)CC2)c(F)c1                   2.3
2  CCC(=O)c1c(Cl)cccc1-c1ccc([C@@H](C)NC(=O)C2(NC(=O)C(F)(F)F)CC2)c(F)c1                   1.6
3  COC(=O)c1c(F)cccc1-c1ccc(CNC(=O)C2(NC(=O)C(F)(F)Cl)CC2)c(F)c1                   2.8
4  COC(=O)c1c(F)cccc1-c1ccc(CNC(=O)C2(NC(C)=O)CC2)c(F)c1                   6.3
5  C[C@@H](NC(=O)C1(NC(=O)C(F)(F)F)CC1)c1ccc(-c2cccc(F)c2C(F)(F)F)cc1F                     2

Just for reference, ChEMBL document CHEMBL1139836 is where these values come from.
